- system.name: Rho-associated protein kinase 2 (Homo sapiens)
- measurement.description: human Rho kinase 2 inhibition – biochemical, Kinase-Glo luminescence, S6 peptide, 1536-well, dose response (AID 644)
- particulars: recombinant ROCK2, S6 peptide, Kinase-Glo ATP luminescence
Calls of active or inactive are those of the source.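 The calls were made as follows: active = IC50 at or below a set limit; inactive = IC50 above that limit.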
Allowed answers: True (active), False (inactive)

Example cases with answers are listed next.
COC(=O)c1cccc2c1-c1ccccc1/C2=N/O :: False
COc1cc(N=Cc2c(O)[nH]c3ccccc23)cc(OC)c1OC :: False
O/N=C/c1c[nH]c2ccccc12 :: True
Cc1[nH]nc2c1C(c1ccc(-c3ccccc3C#N)o1)C(C#N)=C(N)O2 (stereo not drawn) :: False
CN1/C(=N\O)c2cccc3cccc1c23 :: False

*Q* Could you please tell me the result logged for CCOC(=O)C1=C(CSc2nc(-c3ccncc3)ccc2C#N)OC(N)=C(C#N)C1c1cccnc1 (stereo not drawn) in this assay?
*A* False

*Q* Next compound: CN(C(=O)c1cccc(N2C(=O)C3CC=CCC3C2=O)c1)C1CCCCC1 (stereo not drawn)
*A* False

*Q* Try the compound CC1=NN(c2ccccc2)C(=O)C1
*A* False
